Tested on: S. aureus Col(Meth^R)(lac^-)
protocol.text: In vitro MIC, agar dilution
Format: cell-based
condition.description: Staphylococcus aureus, read-out: minimum inhibitory concentration (MIC)
Procedure: The compounds of the invention were evaluated against several β-lactamresistant (for example methicillin-resistant, vancomycin resistant, and/or ampicillin-resistant) bacteria strains by determining the minimum inhibitory concentration (MIC, μg/ml) of each compound with respect to each strain. The MIC, the lowest concentration of antibiotic which inhibits growth of the test organism, was determined by the agar dilution method. […]
Counter-ions that a name gives are not always drawn.
Documented MIC across a set of compounds
# number then unit; no other words

Take a look at these entries with their results.
compound: NCC[S+]([O-])Cc1cnccc1SC1=C(C(=O)O)N2C(=O)[C@@H](NC(=O)/C(=N\O)c3nc(N)sc3Cl)[C@H]2SC1 (stereo partly drawn) [Cmpd 53, trifluoroacetic acid salt]
system.name: S. aureus Col(Meth^R)(lac^-)
MIC: 4 µg/mL

compound: CNCCSCc1cnccc1SC1=C(C(=O)O)N2C(=O)[C@@H](NC(=O)/C(=N\O)c3csc(N)n3)[C@H]2SC1 [Cmpd 15, trifluoroacetic acid salt]
system.name: S. aureus Col(Meth^R)(lac^-)
MIC: 4 µg/mL

compound: NCCSCc1cnccc1SC1=C(C(=O)O)N2C(=O)[C@@H](NC(=O)/C(=N\O)c3ccccc3)[C@H]2SC1.O=C(O)C(F)(F)F [Cmpd 26]
system.name: S. aureus Col(Meth^R)(lac^-)
MIC: 0.5 µg/mL

compound: NCCCSc1cnccc1SC1=C(C(=O)O)N2C(=O)[C@@H](NC(=O)/C(=N\O)c3nc(N)sc3Cl)[C@H]2SC1 [Cmpd 51, trifluoroacetic acid salt]
system.name: S. aureus Col(Meth^R)(lac^-)
MIC: 2 µg/mL

compound: NC(=O)[C@@H](N)CSCc1cnccc1SC1=C(C(=O)O)N2C(=O)[C@@H](NC(=O)/C(=N\O)c3nc(N)sc3Cl)[C@H]2SC1 [Cmpd 59, trifluoroacetic acid salt]
system.name: S. aureus Col(Meth^R)(lac^-)
MIC: 2 µg/mL

Then there is this compound:
Observed MIC on S. aureus Col(Meth^R)(lac^-) for Nc1nc(/C(=N/O)C(=O)N[C@@H]2C(=O)N3C(C(=O)O)=C(Sc4ccncc4CSC4CCNCC4)CS[C@H]23)c(Cl)s1 [Cmpd 52, trifluoroacetic acid salt] , please. 2 µg/mL

====

Test system: S. aureus Col(Meth^R)(lac^-)
Structures can show the parent of a compound that is named as a salt.
measurement.name: MIC (µg/mL)
Could you give me the number in µg/mL? Just the number is fine.

compound: CNCCSCc1cnccc1SC1=C(C(=O)O)N2C(=O)[C@@H](NC(=O)/C(=N\O)c3nc(N)sc3Cl)[C@H]2SC1 [Cmpd 41, trifluoroacetic acid salt]
MIC, µg/mL: 1

compound: NCC(=O)NCCSCc1cnccc1SC1=C(C(=O)O)N2C(=O)[C@@H](NC(=O)/C(=N\O)c3nc(N)sc3Cl)[C@H]2SC1 [Cmpd 29, trifluoroacetic acid salt]
MIC, µg/mL: 1

compound: Nc1nc(/C(=N/O)C(=O)N[C@@H]2C(=O)N3C(C(=O)O)=C(Sc4ccncc4CSCCNC=O)CS[C@H]23)c(Cl)s1 [Cmpd 63, trifluoroacetic acid salt]
MIC, µg/mL: 2

compound: N=C(N)SCc1cnccc1SC1=C(C(=O)O)N2C(=O)[C@@H](NC(=O)/C(=N\O)c3csc(N)n3)[C@H]2SC1 [Cmpd 3, trifluoroacetic acid salt]
MIC, µg/mL: 8

compound: C[C@@H](O)[C@H]1C(=O)N2C(C(=O)O)=C(SCCN=CN)C[C@H]12 [Imipenem, imipenem, reference compound]
MIC, µg/mL: 32

compound: Nc1nc(/C(=N/O)C(=O)N[C@@H]2C(=O)N3C(C(=O)O)=C(Sc4ccncc4CSC[C@H](N)CO)CS[C@H]23)c(Cl)s1 [Cmpd 65, trifluoroacetic acid salt]
MIC, µg/mL: 2

Returns the measured MIC for the input compound. Input: NCCSCc1nnsc1SC1=C(C(=O)O)N2C(=O)[C@@H](NC(=O)/C(=N\O)c3csc(N)n3)[C@H]2SC1 [Cmpd 38, trifluoroacetic acid salt] 1

Another compound to look at: NCCSCc1cnccc1SC1=C(C(=O)O)N2C(=O)[C@@H](NC(=O)/C(=N\O)c3nc(N)sc3Cl)[C@H]2SC1 [Cmpd 16, trifluoroacetic acid salt] 0.5

Another compound to look at: CNCCNCCSCc1cnccc1SC1=C(C(=O)O)N2C(=O)[C@@H](NC(=O)/C(=N\O)c3nc(N)sc3Cl)[C@H]2SC1 [Cmpd 57, trifluoroacetic acid salt] 4

Another compound to look at: N=C(N)SCc1cnccc1SC1=C(C(=O)O)N2C(=O)[C@@H](NC(=O)Cc3ccccc3)[C@H]2SC1 [Cmpd 1, trifluoroacetic acid salt] 4

Another compound to look at: "NC(=O)CSCc1cnccc1SC1=C(C(=O)O)N2C(=O)[C@@H](NC(=O)/C(=N\O)c3nc(N)sc3Cl)[C@H]2SC1" 2

Another compound to look at: NCC(=O)NCCSCc1cnccc1SC1=C(C(=O)O)N2C(=O)[C@@H](NC(=O)/C(=N\O)c3csc(N)n3)[C@H]2SC1 [Cmpd 24, trifluoroacetic acid salt] 8

Another compound to look at: CC(N)CSCc1cnccc1SC1=C(C(=O)O)N2C(=O)[C@@H](NC(=O)/C(=N\O)c3nc(N)sc3Cl)[C@H]2SC1 (stereo partly drawn) [Cmpd 36, trifluoroacetic acid salt] 1

Another compound to look at: "CNCCNCCSCc1nnsc1SC1=C(C(=O)O)N2C(=O)[C@@H](NC(=O)/C(=N\OCCF)c3nc(N)sc3Cl)[C@H]2SC1.O=C(O)C(F)(F)F" 2

Another compound to look at: NCCS(=O)(=O)Cc1cnccc1SC1=C(C(=O)O)N2C(=O)[C@@H](NC(=O)/C(=N\O)c3nc(N)sc3Cl)[C@H]2SC1 [Cmpd 45, trifluoroacetic acid salt] 4

Another compound to look at: NCCSc1cnccc1SC1=C(C(=O)O)N2C(=O)[C@@H](NC(=O)/C(=N\O)c3nc(N)sc3Cl)[C@H]2SC1 [Cmpd 30, trifluoroacetic acid salt] 0.5

Another compound to look at: NCCCOCc1cnccc1SC1=C(C(=O)O)N2C(=O)[C@@H](NC(=O)/C(=N\O)c3nc(N)sc3Cl)[C@H]2SC1 [Cmpd 47, trifluoroacetic acid salt] 2

Another compound to look at: N=C(N)SCc1ncsc1SC1=C(C(=O)O)N2C(=O)[C@@H](NC(=O)Cc3ccccc3)[C@H]2SC1 [Cmpd 5, trifluoroacetic acid salt] 8

Another compound to look at: N=CNCCSCc1cnccc1SC1=C(C(=O)O)N2C(=O)[C@@H](NC(=O)/C(=N\O)c3nc(N)sc3Cl)[C@H]2SC1 [Cmpd 31, trifluoroacetic acid salt] 2

Another compound to look at: Nc1nc(/C(=N/O)C(=O)N[C@@H]2C(=O)N3C(C(=O)O)=C(Sc4ccncc4SCCNC=O)CS[C@H]23)c(Cl)s1 [Cmpd 64, trifluoroacetic acid salt] 2

Another compound to look at: NCCCCOCc1cnccc1SC1=C(C(=O)O)N2C(=O)[C@@H](NC(=O)/C(=N\O)c3nc(N)sc3Cl)[C@H]2SC1 [Cmpd 46, trifluoroacetic acid salt] 2

====

For reference, MIC measured on S. aureus Col8A(Meth^S)(lac^-):
Counter-ions that a name gives are not always drawn.
Could you give me the number in µg/mL? Just the number is fine.

Returns the measured MIC for the input molecule. Input: CNCC(=O)NCCSCc1cnccc1SC1=C(C(=O)O)N2C(=O)[C@@H](NC(=O)/C(=N\O)c3nc(N)sc3Cl)[C@H]2SC1 [Cmpd 43, trifluoroacetic acid salt] 0.5

====

Documented MIC across a set of compounds
System: S. aureus ATCC 29213
Structures can show the parent of a compound that is named as a salt.

Take a look at these entries with their results.
compound: CNCCSCc1cnccc1SC1=C(C(=O)O)N2C(=O)[C@@H](NC(=O)/C(=N\O)c3csc(N)n3)[C@H]2SC1 [Cmpd 15, trifluoroacetic acid salt]
system.name: S. aureus ATCC 29213
MIC: 1 µg/mL
//
compound: CNCCNCCSCc1cnccc1SC1=C(C(=O)O)N2C(=O)[C@@H](NC(=O)/C(=N\O)c3nc(N)sc3Cl)[C@H]2SC1 [Cmpd 57, trifluoroacetic acid salt]
system.name: S. aureus ATCC 29213
MIC: 1 µg/mL
//
compound: N=CNCCCSCc1cnccc1SC1=C(C(=O)O)N2C(=O)[C@@H](NC(=O)/C(=N\O)c3nc(N)sc3Cl)[C@H]2SC1 [Cmpd 34, trifluoroacetic acid salt]
system.name: S. aureus ATCC 29213
MIC: ≤ 0.06 µg/mL
//
compound: Nc1nc(/C(=N/O)C(=O)N[C@@H]2C(=O)N3C(C(=O)O)=C(Sc4ccncc4CSC4CCNCC4)CS[C@H]23)c(Cl)s1 [Cmpd 52, trifluoroacetic acid salt]
system.name: S. aureus ATCC 29213
MIC: 0.5 µg/mL
//
compound: N=CNCCSCc1cnccc1SC1=C(C(=O)O)N2C(=O)[C@@H](NC(=O)/C(=N\O)c3nc(N)sc3Cl)[C@H]2SC1 [Cmpd 31, trifluoroacetic acid salt]
system.name: S. aureus ATCC 29213
MIC: 0.25 µg/mL
//
compound: NCCSc1cnccc1SC1=C(C(=O)O)N2C(=O)[C@@H](NC(=O)/C(=N\O)c3csc(N)n3)[C@H]2SC1 [Cmpd 20, trifluoroacetic acid salt]
system.name: S. aureus ATCC 29213
MIC: 0.5 µg/mL

Then there is this compound:
Observed MIC on S. aureus ATCC 29213 for NCC(O)CSCc1cnccc1SC1=C(C(=O)O)N2C(=O)[C@@H](NC(=O)/C(=N\O)c3nc(N)sc3Cl)[C@H]2SC1 (stereo partly shown) [Cmpd 32, trifluoroacetic acid salt] , please. 0.25 µg/mL
